System: OVCAR-3 ovarian
Test: NCI tumour cell line growth inhibition, 48 h; in the data active means GI50 below about 0.43 µM; inactive means the rest
Possible outcomes: active, inactive

>>> class("CN(Cc1cnc2nc(N)nc(N)c2n1)c1ccc(C(=O)NC(CCC(=O)O)C(=O)O)c2ccccc12 (centres undefined)")
"inactive"
>>> class("CC[n+]1c(-c2ccccc2)c2cc(N)ccc2c2ccc(N)cc21")
"inactive"
>>> class("COC(=O)[C@]12CC[C@@H](C)[C@H](C)[C@@H]1C1=CC[C@@H]3[C@@]4(C)C(C=O)=C[C@@](C)(COS(C)(=O)=O)C4=CC[C@@]3(C)[C@]1(C)CC2")
"active"
>>> class("NC1=NC(c2ccccc2Cl)c2c(n[nH]c2N)N1 (centres undefined)")
"inactive"
>>> class("CCCCCCCCCCCCCC(=O)O[C@H]1CC[C@H](NC(=O)[C@H](OC)[C@H](O)[C@@H](O)[C@H](O)/C=C/C(C)C)C(=O)N(C)C1")
"active"
>>> class("O=C(CI)NC(=O)NC(=O)NCc1ccccc1")
"inactive"
>>> class("O=C1Nc2ccc(-c3cccnc3)cc2/C1=C/c1cc(Br)c(O)c(Br)c1")
"inactive"
>>> class("S=C(Sc1ccc(Cl)cc1)Sc1ccc(Cl)cc1")
"inactive"
>>> class("O=C(CCCCN1CCN(CCCCC(=O)Nc2ccccc2C#C/C=C\\C#Cc2ccccc2C(F)(F)F)CC1)Nc1ccccc1C#C/C=C\\C#Cc1ccccc1C(F)(F)F")
"inactive"

---

Each entry below carries its recorded GI50.
Tested on: SF-268 CNS
Assay: NCI tumour cell line growth inhibition, 48 h
resultType: GI50

>>> experimentalresult("O=C(O)c1ccccc1NCn1nc(-c2ccccc2O)oc1=S")
"80.9 µM"
>>> experimentalresult("O=c1[nH]c(=S)[nH]c(O)c1/C=C1\\C=Nc2ccccc21")
"2.52 µM"
>>> experimentalresult("C#COc1cccc(Nc2ncnc3cc(NC(=O)[C@@H](C)Cl)ccc23)c1")
"16.9 µM"
>>> experimentalresult("Nc1c(C(=O)Nc2ccccc2)sc2nc3c(cc12)C(=O)CCC3")
"1.02 µM"
>>> experimentalresult("O=C(Nc1nc2ccc(S(=O)(=O)Nc3ccc(C4(C(F)(F)F)CC4)cc3)cc2[nH]1)c1cnccn1")
"4.21 µM"
>>> experimentalresult("S=C(Sc1ccc(Cl)cc1)Sc1ccc(Cl)cc1")
"2.1 µM"
>>> experimentalresult("NC(=O)c1nc(-c2c(F)cccc2Cl)oc1Nc1ccc(C(=O)N2CCOCC2)cc1")
"3.07 µM"
>>> experimentalresult("O=C(CCCCN1CCN(CCCCC(=O)Nc2ccccc2C#C/C=C\\C#Cc2ccccc2C(F)(F)F)CC1)Nc1ccccc1C#C/C=C\\C#Cc1ccccc1C(F)(F)F")
"12.3 µM"
>>> experimentalresult("COc1ccc(-c2cnc(-c3ccncc3-c3cccc(OC)c3)o2)cc1")
"0.0783 µM"
>>> experimentalresult("NC1=NC(c2ccccc2Cl)c2c(n[nH]c2N)N1 (stereo not drawn)")
"26.9 µM"
>>> experimentalresult("O=C(Nc1ccc(-n2cc(-c3ccncc3)c(-c3ccc(O)c(Cl)c3)n2)cc1)Nc1cc(C(F)(F)F)cc(C(F)(F)F)c1")
"4.37 µM"
>>> experimentalresult("C[C@]12CCc3nc(Nc4ccc(O)cc4)sc3C1=CC[C@@H]1[C@@H]2CC[C@]2(C)/C(=N/NC(N)=S)CC[C@@H]12")
"1.34 µM"
>>> experimentalresult("CC(=O)Nc1cccc(C#Cc2cncnc2Nc2ccc(OCc3cccc(F)c3)c(Cl)c2)c1")
"16.6 µM"

Every entry's value here was drawn from PubChem BioAssay (NCI).
